These measurements were taken from patent US9669003B2.

Test system: Kunming mice
Test: Influence on hypnosis effect with pentobarbital sodium doses at the threshold (50 mg/kg i.p.)
Assay type: in vivo
Conditions: 50 mg/kg intragastric single dose, pentobarbital sodium 50 mg/kg i.p. 60 min later, x ± s, n = 10
Assay metric: duration of sleep (min)

# Molecule, Assay metric, Value unit, Readout number
records = [
    ("COc1ccc(C2CC(=O)c3c(cc(OC)c(OC)c3OC)O2)cc1 (centres unmarked) [Example 65, 5,6,7,4′-tetra methoxyl-flavanone]", "duration of sleep", "min", 39.63),
    ("COc1ccc(-c2cc(=O)c3c(O)c(OC)c(OC)c(OC)c3o2)cc1OC [Example 11]", "duration of sleep", "min", 63.75),
    ("COc1ccc(C2CC(=O)c3c(OC)c(OC)c(OC)c(OC)c3O2)cc1OC (centres unmarked) [Example 48, 5,6,7,8,3′,4′-hexamethoxyl-flavanone]", "duration of sleep", "min", 67.54),
    ("COc1cc(OC)c2c(=O)cc(-c3ccc(OC)c(O)c3)oc2c1 [Example 4, 3′-hydroxyl-5,7,4′-trimethoxyl-flavone]", "duration of sleep", "min", 69.91),
    ("COc1cc(OC)cc(C2CC(=O)c3c(OC)cc(OC)cc3O2)c1 (centres unmarked) [Example 49]", "duration of sleep", "min", 40.75),
    ("Cc1cc(C2CC(=O)c3c(cccc3[N+](=O)[O-])O2)ccc1Oc1ccccc1 (centres unmarked) [Example 63]", "duration of sleep", "min", 62.64),
    ("COc1ccc(O)cc1-c1cc(=O)c2c(O)cc(OC)c(OC)c2o1 [Example 12]", "duration of sleep", "min", 28.68),
    ("COc1cc(OC)c2c(=O)cc(-c3ccc(OC)c(OC)c3)oc2c1 [Example 36]", "duration of sleep", "min", 61.41),
]

----------
Overview of reported Times of activities in 2 h after drug administration/10 min across a group of compounds:
Test system: Kunming mice
Assay: Influence on autonomic activity of normal mice (ZIL-2 mice autonomic activity meter, counts within 10 min)
Type: in vivo
Conditions: intragastric, 25 mg/kg, 2 h after administration, x ± s, n = 10
Assay metric: Times of activities in 2 h after drug administration/10 min

# Compound, Result
rows = [
    ("C=Cc1ccc(-c2cc(=O)c3cc(C#N)c(Cc4ccccc4)c(C=CC)c3o2)cc1[N+](=O)[O-]", "321.3 ± 53.9 /10 min"),
    ("CC=Cc1cc(C(=O)O)c2c(=O)cc(-c3ccc(C#N)c(C(=O)O)c3)oc2c1", "276.0 ± 48.7 /10 min"),
    ("COc1cc(-c2cc(=O)c3c(OC)c(OC)c(OC)c(OC)c3o2)cc(OC)c1OC", "255.1 ± 42.9 /10 min"),
    ("C=Cc1cc2c(=O)cc(-c3ccc(CC)c(N)c3)oc2c(C2CCSC2)c1C(N)=O (stereo not shown)", "264.1 ± 42.2 /10 min"),
]

----------
System: Kunming mice
Experiment: Influence on hypnosis effect with pentobarbital sodium doses at the threshold (50 mg/kg i.p.)
Format: in vivo
Settings: 100 mg/kg intragastric single dose, pentobarbital sodium 50 mg/kg i.p. 60 min later, x ± s, n = 10
Define the label as 1 when duration of sleep is strictly less than 70 min and as -1 in all remaining cases.

# Molecule, Experimental target, Qualitative label
rows = [
    ("CCCc1cc(C2CC(=O)c3c(cc(O)cc3[N+](=O)[O-])O2)cc(-c2ccccc2)c1C1CCSC1 (centres unmarked)", "Kunming mice", -1),
    ("COc1ccc(-c2cc(=O)c3c(OC)cc(O)cc3o2)cc1OC [Example 5, 7-hydroxyl-5,3′,4′-trimethoxyl-flavone]", "Kunming mice", -1),
    ("COc1ccc(O)cc1-c1cc(=O)c2c(O)cc(OC)c(OC)c2o1", "Kunming mice", 1),
    ("COc1ccc(C2CC(=O)c3c(OC)c(OC)c(OC)c(OC)c3O2)cc1OC (centres unmarked)", "Kunming mice", -1),
    ("COc1cc2c(c(OC)c1OC)OC(c1cc(OC)c(OC)c(OC)c1OC)CC2=O (centres unmarked)", "Kunming mice", 1),
    ("CC=Cc1cc(I)cc2c1OC(c1cccc(C(=O)O)c1)CC2=O (centres unmarked)", "Kunming mice", -1),
    ("COc1ccc(C2CC(=O)c3c(O)c(OC)c(OC)c(OC)c3O2)cc1OC (centres unmarked) [Example 64]", "Kunming mice", 1),
]
